System: potted young oranges (variety: Unshu)
Assay: Phytotoxicity of treating compound, Citrus Melanose test
Settings: 500 ppm
endpoint: Phytotoxicity of Treating Compound

// worked examples, Phytotoxicity of Treating Compound included
- smilesInput: "O=C1C(Cl)=C(Cl)C(=O)N1c1ccccc1OC(F)F"
  Phytotoxicity of Treating Compound: "- (0%)"
- smilesInput: "O=C1C(Cl)=C(Cl)C(=O)N1c1ccc(OC(F)F)cc1"
  Phytotoxicity of Treating Compound: "- (0%)"
- smilesInput: "COc1cccc(N2C(=O)C(Cl)=C(Cl)C2=O)c1"
  Phytotoxicity of Treating Compound: "- (0%)"
- smilesInput: "COc1ccc(N2C(=O)C(Cl)=C(Cl)C2=O)cc1"
  Phytotoxicity of Treating Compound: "- (0%)"
- smilesInput: "O=C1C=CC(=O)N1c1ccc(OC(F)F)cc1"
  Phytotoxicity of Treating Compound: "+ (6-25%)"
- smilesInput: "O=C1C=CC(=O)N1c1ccccc1OC(F)F"
  Phytotoxicity of Treating Compound: "- (0%)"

Briefly, Phytotoxicity of Treating Compound measured for O=C1C(Cl)=C(Cl)C(=O)N1c1cccc(OC(F)F)c1 : - (0%)

Briefly, Phytotoxicity of Treating Compound measured for COc1ccccc1N1C(=O)C(Cl)=C(Cl)C1=O : + (6-25%)
